- TEST NAME: recombinant UMI read abundance after kanamycin selection (control-corrected) (log10(CPM+1)); higher = more efficient recombination; extreme values may be limits of the assay; sequences stand for … in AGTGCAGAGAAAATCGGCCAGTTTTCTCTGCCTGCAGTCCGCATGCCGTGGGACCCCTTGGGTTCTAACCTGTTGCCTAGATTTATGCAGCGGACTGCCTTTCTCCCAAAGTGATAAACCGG…AGGTTGGTTTCACT; site = the 11-nt donor;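 further: IS621 bridge recombinase in Escherichia coli cells against a fixed T5 target plasmid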
# recombinant UMI read abundance (log10) values compiled below

# RECORD SEQUENCE, recombinant UMI read abundance (log10)
rows = [
    ("TGCGAGGCATGGACCGGTTTTCCCGGTAATCCGTATTTGGT (site TGCAAGGCTAC)", 0.35),
    ("AGCCTTTCATGGACCGGTTTTCCCGGTAATCCGTATTTGCC (site AGCCTTTCTGT)", 0),
    ("GAAGCTTCATGGACCGGTTTTCCCGGTAATCCGTATTTGTT (site GAAGTTTCTAA)", 0),
    ("CCCTGTCCATGGACCGGTTTTCCCGGTAATCCGTATTTGCA (site CCCAGTCCTTG)", 0),
    ("GATTGCCCATGGACCGGTTTTCCCGGTAATCCGTATTTGAT (site GGTTGCCCTAT)", 0.00714),
]
